- tested target: Metabotropic glutamate receptor 8 (Rattus norvegicus)
- assay remarks: mGluR8 Gi/Go-coupled signaling modulation – cell-based, rat, thallium flux, HTS, primary screen (AID 488969)
- settings: HEK293 rat mGluR8, GIRK thallium flux, FluoZin2; at 10 µM; stronger effect = higher value; submaximal glutamate (EC20) added with thallium
In all, about 110,000 compounds were measured (“z-score”: median about -0.1, highest 2% from about 2 on). The sample as a whole holds a higher share of the highest values than the screen did.
Lab note: anything with z-score at or over -0.1 counts as yes; the rest go in no.

Form field: z-score at least -0.1? Entry: `O=C(CCc1ccccc1)N1CCN(c2ccccn2)CC1`
no

Does the compound `O=C(c1ccccc1CCc1ccccc1)N1CCN(c2ccccn2)CC1` have recorded z-score that is -0.1 or more?
yes

Given the entry `CCN1CCN(C(=S)NCc2ccc(C)cc2)CC1` , answer whether its z-score meets or surpasses -0.1.
yes

Answer whether z-score of O=C1c2ccccc2NC(c2cccc(Cl)c2)N1N=C1CCCCCC1 (stereo unspecified) is greater than or equal to -0.1.
no

Kindly determine if z-score recorded for `COc1ccc2nc(Nc3nc4cc5c(cc4s3)OCO5)sc2c1` is above or exactly -0.1.
yes

* * *

- tested target: Metabotropic glutamate receptor 8 (Rattus norvegicus) (UniProt P70579)
- Sequence (P70579 whole entry, looked up): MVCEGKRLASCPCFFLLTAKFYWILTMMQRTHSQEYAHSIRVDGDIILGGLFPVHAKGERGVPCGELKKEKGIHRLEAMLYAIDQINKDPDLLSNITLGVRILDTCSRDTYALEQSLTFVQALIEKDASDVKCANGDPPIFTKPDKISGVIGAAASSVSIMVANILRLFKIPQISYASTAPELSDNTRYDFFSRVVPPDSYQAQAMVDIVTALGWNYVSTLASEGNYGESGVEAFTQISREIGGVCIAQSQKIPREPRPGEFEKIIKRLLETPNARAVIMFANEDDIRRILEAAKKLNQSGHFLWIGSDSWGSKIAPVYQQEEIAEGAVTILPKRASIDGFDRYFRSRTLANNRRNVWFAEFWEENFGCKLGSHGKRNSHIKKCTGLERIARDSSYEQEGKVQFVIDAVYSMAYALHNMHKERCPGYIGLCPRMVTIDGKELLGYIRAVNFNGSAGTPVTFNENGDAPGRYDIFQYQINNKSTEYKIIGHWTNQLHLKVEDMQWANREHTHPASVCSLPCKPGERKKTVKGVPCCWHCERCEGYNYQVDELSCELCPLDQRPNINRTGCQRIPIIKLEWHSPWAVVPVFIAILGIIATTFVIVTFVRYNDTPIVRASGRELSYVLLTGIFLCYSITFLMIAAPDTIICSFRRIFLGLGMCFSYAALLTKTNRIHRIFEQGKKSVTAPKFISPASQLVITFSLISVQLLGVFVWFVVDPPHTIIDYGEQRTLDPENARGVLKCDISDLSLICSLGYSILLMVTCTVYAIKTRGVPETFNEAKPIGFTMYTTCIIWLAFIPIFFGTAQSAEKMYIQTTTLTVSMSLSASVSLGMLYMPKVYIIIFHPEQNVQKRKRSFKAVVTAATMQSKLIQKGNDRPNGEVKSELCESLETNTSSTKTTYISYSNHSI
- assay remarks: mGluR8 Gi/Go-coupled signaling modulation – cell-based, rat, thallium flux, HTS, primary screen (AID 488969)
- settings: HEK293 rat mGluR8, GIRK thallium flux, FluoZin2; at 10 µM; stronger effect = higher value; submaximal glutamate (EC20) added with thallium
Over roughly 110,000 compounds, “z-score” has its median near -0.1; the highest 2% begin near 2. Many of the other results were omitted from the sample, so the highest values are more common in it than they were.
measured property: z-score
Could you keep your reply to the number by itself?

A selection of reference data follows.
>>> measured_result("O=C(NC(=S)Nc1ccccc1)c1cc(-c2ccccc2)nc2ccccc12")
9.35
>>> measured_result("CC(C)OC(=O)c1c(N)sc2c1CCCC2")
2.03
>>> measured_result("CCCCn1c(-c2ccoc2C)n[nH]c1=S")
0.216

For reference, reported z-score for `O=C(NCc1ccc2c(c1)OCO2)c1cc2ccccc2o1` stands at -0.522

z-score reported for this molecule `COC(=O)c1ccc(NC(=S)Nc2ccccc2)cc1` : 0.0759

Entry under test: O=C(CC1Oc2ccccc2NC1=O)NC1CCCC1 (stereo unspecified) . Its z-score was -0.0976

* * *

- tested target: Metabotropic glutamate receptor 8 (Rattus norvegicus) (UniProt P70579)
- assay remarks: mGluR8 Gi/Go-coupled signaling modulation – cell-based, rat, thallium flux, HTS, primary screen (AID 488969)
- settings: HEK293 rat mGluR8, GIRK thallium flux, FluoZin2; at 10 µM; stronger effect = higher value; submaximal glutamate (EC20) added with thallium
The full ranking holds about 110,000 compounds; the median of “z-score” is about -0.1, and the highest 2% start at about 2. The sample holds the highest values, similar compounds and a random draw of the others, so the mix is not that of the screen.
measured property: z-score
Reply: number alone, nothing else.

Some molecules with known z-score results, for comparison:
>>> measured_result("O=C(Nc1ccc(F)cc1)N1CCN(c2ccc3nnc(-c4ccc(F)cc4)n3n2)CC1")
-1.17
>>> measured_result("Cn1c(C(=O)NCCCN2CCc3ccccc3C2)cc2c(=O)n(C)c3ccccc3c21")
0.807
>>> measured_result("Cc1[nH]c(=O)[nH]c(=O)c1/C=C/C(=O)OCC(C)C")
0.104

Recorded result, `S=c1sc(SCCOc2ccccc2)nn1-c1ccccc1` , z-score: -0.317

* * *

- tested target: Metabotropic glutamate receptor 8 (Rattus norvegicus)
- assay remarks: mGluR8 Gi/Go-coupled signaling modulation – cell-based, rat, thallium flux, HTS, primary screen (AID 488969)
- settings: HEK293 rat mGluR8, GIRK thallium flux, FluoZin2; at 10 µM; stronger effect = higher value; submaximal glutamate (EC20) added with thallium
Over roughly 110,000 compounds, “z-score” has its median near -0.1; the highest 2% begin near 2. What follows is part of a selection rich in the highest values, with near analogues and random picks from the rest.
Parameter threshold = -0.1. Response is Satisfied when z-score meets or exceeds it, else Not satisfied.

Solved entries:
>>> class_name("c1ccc(CCNc2ncnc3c2cnn3-c2ccccc2)cc1")
"Not satisfied"
>>> class_name("CC(=O)NC12CC3CC(CC(CC(=O)O)(C3)C1)C2")
"Satisfied"
>>> class_name("Cc1cc(NC(=O)c2ccc(S(=O)(=O)N3CCCC3)cc2)nc2c1c(=O)oc1ccccc12")
"Satisfied"
>>> class_name("Cn1c(=O)oc2cc(S(=O)(=O)NCc3ccccc3)ccc21")
"Satisfied"
>>> class_name("COc1ccc(C(C(=O)NC(C)(C)C)N(C(=O)CNC(=O)c2cccs2)c2ccc(C(C)C)cc2)cc1OC (stereo not drawn)")
"Not satisfied"

Lab note: next compound to report on.
API: above_or_equal(metric=z-score, cutoff=-0.1) for item `COc1nc(N2CCOCC2)nc(C)c1[N+](=O)[O-]`
Not satisfied

* * *

- tested target: Metabotropic glutamate receptor 8 (Rattus norvegicus)
- assay remarks: mGluR8 Gi/Go-coupled signaling modulation – cell-based, rat, thallium flux, HTS, primary screen (AID 488969)
- settings: HEK293 rat mGluR8, GIRK thallium flux, FluoZin2; at 10 µM; stronger effect = higher value; submaximal glutamate (EC20) added with thallium
In all, about 110,000 compounds were measured (“z-score”: median about -0.1, highest 2% from about 2 on). For the sample, the highest values were picked, then their nearest neighbours and some compounds at random.
Listed here are molecules together with their documented z-score.
Please reply with the value in numeric form only.

Some molecules with known z-score results, for comparison:
>>> measured_result("CCOC(=O)CN1C(=O)C(C)(C)Oc2ccc(C(=O)Nc3ccccc3)cc21")
-0.637
>>> measured_result("Cc1[nH]n(-c2ccc([N+](=O)[O-])cc2)c(=O)c1N=Nc1nc2ccccc2s1")
2.47
>>> measured_result("Cc1[nH]n(-c2ccc([N+](=O)[O-])cc2)c(=O)c1C=NCCc1c(C)[nH]c2ccccc12")
-0.0759
>>> measured_result("COc1ccc(OCc2nc3ccc(S(=O)(=O)Nc4ccccc4Cl)cc3[nH]2)cc1")
-0.822
>>> measured_result("CCCCCOC(=O)Cn1c(N2CCOCC2)nc2c1c(=O)[nH]c(=O)n2C")
-0.228
>>> measured_result("O=C(NC(=S)N1CCN(Cc2ccccc2)CC1)c1ccccc1")
6.31
>>> measured_result("Cc1[nH]n2c(=O)cc(-c3ccc([N+](=O)[O-])cc3)nc2c1-c1ccccc1")
-1.93
>>> measured_result("Cc1c(O)ccc(/C(Cc2ccc3ccccc3n2)=N\\O)c1O")
-0.308

Noted for `Cc1[nH]n(-c2ccccc2)c(=O)c1S(=O)(=O)c1ccccc1` : its z-score reads -0.642

Field z-score (entry `COc1ccc2oc(C(=O)C3CC3)c(N)c2c1` ) reads 1.19

The measured z-score associated with CCOC(=O)C1=C(C)NC(=O)NC1c1cccc(O)c1 (configuration not stated) reads -0.126

* * *

- tested target: Metabotropic glutamate receptor 8 (Rattus norvegicus)
- assay remarks: mGluR8 Gi/Go-coupled signaling modulation – cell-based, rat, thallium flux, HTS, primary screen (AID 488969)
- settings: HEK293 rat mGluR8, GIRK thallium flux, FluoZin2; at 10 µM; stronger effect = higher value; submaximal glutamate (EC20) added with thallium
In all, about 110,000 compounds were measured (“z-score”: median about -0.1, highest 2% from about 2 on). Shown is part of a subset that was picked to be rich in the highest values.
Label TRUE when z-score is at or above 0.5; otherwise label FALSE.

Completed entries (count: 2):
>>> class_name("CCN(c1ccccc1)S(=O)(=O)c1ccc(C(=O)Oc2ccc(C(C)=O)cc2)cc1")
"FALSE"
>>> class_name("Cc1ccc(OCC(=O)Nc2sc3c(c2C#N)CCC3)cc1C")
"FALSE"

Please check the record `COc1ccc(S(=O)(=O)N(C)CC(=O)Nc2ccc(C(F)(F)F)cc2)cc1Cl` and state if its z-score is at or above 0.5.
TRUE

Please check the record CCOC(=O)CSC1=Nc2ccccc2C2=NC(CC(=O)NCc3ccccc3)C(=O)N12 (stereo not drawn) and state if its z-score is at or above 0.5.
TRUE

* * *

Below, each entry is listed with its recorded z-score.
- tested target: Metabotropic glutamate receptor 8 (Rattus norvegicus) (UniProt P70579)
- assay remarks: mGluR8 Gi/Go-coupled signaling modulation – cell-based, rat, thallium flux, HTS, primary screen (AID 488969)
- settings: HEK293 rat mGluR8, GIRK (G protein-gated inwardly rectifying potassium channel) thallium flux, FluoZin2; at 10 µM; stronger effect = higher value; submaximal glutamate (EC20) added with thallium
Over roughly 110,000 compounds, “z-score” has its median near -0.1; the highest 2% begin near 2. The entries come from a sample that favours the highest values as a whole.
Form field (numeric): enter value without unit.

Study these solved cases before continuing.
>>> measured_result("CCNC(=S)NNC(=O)c1cc(-c2cccc(C)c2)nc2ccccc12")
0.214
>>> measured_result("Cc1ccccc1NC(=S)NC(=O)c1cc(-c2ccccc2)nc2ccccc12")
7.41
>>> measured_result("Cc1cccc(NC(=O)c2cc(Cl)nc3ccccc23)c1")
-0.228
>>> measured_result("Cc1ccc(-c2cc(C(=O)Nc3cc(C)on3)c3ccccc3n2)cc1")
-0.321
>>> measured_result("O=C(NCc1ccccn1)c1cc(-c2ccccc2)nc2ccccc12")
-0.314

Okay, next one:
z-score for `Cc1cccc(NC(=S)NC(=O)c2cc(-c3ccccc3)nc3ccccc23)c1` is 5.14
